experiment: Pharmacokinetics in silkworm hemolymph after intra-hemolymph injection; type: in vivo, Silkworms (Bombyx mori); conditions: Hu•Yo × Tsukuba•Ne, 50 ug, injected dose 50 μg intra-hemolymph, read-out: t1/2 (half-life at terminal phase)
Listed next: entries and their corresponding half-life.
Supply the numeric figure in h, leaving out any unit text.

molecular_string=O=C(OCc1cc(Cl)cc(Cl)c1)c1ccc([N+](=O)[O-])s1 property=half-life unit_string=h measured_result=2.33

In the following, a different molecule is considered.
Asked: Dear colleague, I am looking for the recorded half-life of the following molecule: O=C(OCc1ccccc1)c1ccc([N+](=O)[O-])s1
Given back: 0.883

----------
test: Pharmacokinetics in silkworm hemolymph after intra-hemolymph injection; type: in vivo, Silkworms (Bombyx mori); details: Hu•Yo × Tsukuba•Ne, 50 ug, injected dose 50 μg intra-hemolymph, read-out: Vss (volume of distribution at steady state)
Listed next: entries and their corresponding Vd.

compound="O=C(OCc1ccccc1)c1ccc([N+](=O)[O-])s1 [compound 7]" property=Vd measured_result="0.044 L"

Asked: Dear colleague, I am looking for the recorded Vd of the following compound: O=C(OCc1cc(Cl)cc(Cl)c1)c1ccc([N+](=O)[O-])s1 [compound 5]
Given back: 0.03 L

----------
Test system: S. aureus MRSA4
Test: MIC against S. aureus MRSA4 in vitro (broth dilution)
Format: cell-based
Conditions: Staphylococcus aureus; S. aureus MRSA4 in vitro; SAR series (Fig. 2)
Method: We synthesized 50 compounds (Fig. 2, Supplementary Table 1) using the Steglich esterification scheme[31] in the presence of a […], 1-ethyl-3-(3-dimethylaminopropyl)-carbodiimide hydrochloride (Fig. 1b). […] Antimicrobial activity was assessed by determining the MIC by broth dilution assay according to our previous reports[21],[35],[36] as per the Clinical and Laboratory Standards Institute[37]. […]
Listed next: entries and their corresponding MIC.
Supply the numeric figure in µg/mL, leaving out any unit text.

Sample answers from the record:
molecular_string=O=C(OCc1ccc(OC(F)(F)F)cc1)c1ccc([N+](=O)[O-])s1 measured_result=6.3
molecular_string=O=C(OCc1cccc(Cl)c1)c1ccc([N+](=O)[O-])o1 measured_result=12.5

Asked: Dear colleague, I am looking for the recorded MIC of the following compound: O=C(OCc1cc(Cl)ccc1Cl)c1ccc([N+](=O)[O-])s1
Given back: 3.1

----------
Listed next: entries and their corresponding C0.
assay: Pharmacokinetics in silkworm hemolymph after intra-hemolymph injection; assay type: in vivo, Silkworms (Bombyx mori); conditions: Hu•Yo × Tsukuba•Ne, 50 ug, injected dose 50 μg intra-hemolymph, read-out: C0 (initial concentration, extrapolated time-zero value)
Supply the numeric figure in ng/mL, leaving out any unit text.

molecular_string=O=C(OCc1cc(Cl)cc(Cl)c1)c1ccc([N+](=O)[O-])s1 property=C0 measured_result=24000

In the following, a different molecule is considered.
Asked: Dear colleague, I am looking for the recorded C0 of the following molecule: O=C(OCc1ccccc1)c1ccc([N+](=O)[O-])s1
Given back: 7000

----------
System: S. aureus MRSA4
Experiment: MIC against S. aureus MRSA4 in vitro (broth dilution)
Format: cell-based
Conditions: Staphylococcus aureus; S. aureus MRSA4 in vitro; SAR series (Fig. 2)
Experimental: We synthesized 50 compounds (Fig. 2, Supplementary Table 1) using the Steglich esterification scheme[31] in the presence of a […], 1-ethyl-3-(3-dimethylaminopropyl)-carbodiimide hydrochloride (Fig. 1b). […] Antimicrobial activity was assessed by determining the MIC by broth dilution assay according to our previous reports[21],[35],[36] as per the Clinical and Laboratory Standards Institute[37]. […]
Criterion: MIC strictly under 3 µg/mL. Met: satisfied. Not met: not satisfied.

molecular_string=O=Cc1ccc(C(=O)OCc2cc(Br)cc(Br)c2)s1 cat="not satisfied"
molecular_string=Cc1ccc(C(=O)OCc2cc(Cl)cc(Cl)c2)s1 cat="not satisfied"
molecular_string=O=C(OCc1ccccc1)c1ccc([N+](=O)[O-])s1 cat=satisfied
molecular_string=O=C(OCc1cc(F)cc(F)c1)c1ccc([N+](=O)[O-])s1 cat="not satisfied"
molecular_string=O=C(OCc1cc2c(cc1Cl)OCO2)c1ccc([N+](=O)[O-])s1 cat="not satisfied"

Asked: Answer whether the compound O=C(OCc1cc(Br)cc(Br)c1)c1ccc([N+](=O)[O-])s1 has MIC strictly less than 3 µg/mL
Given back: not satisfied

Asked: Answer whether the compound O=C(OCc1c(Br)c(Br)c(Br)c(Br)c1Br)c1ccc([N+](=O)[O-])s1 has MIC strictly less than 3 µg/mL
Given back: not satisfied

Asked: Answer whether the compound O=C(OCc1c(Cl)cc(Cl)cc1Cl)c1ccc([N+](=O)[O-])s1 has MIC strictly less than 3 µg/mL
Given back: satisfied

Asked: Answer whether the compound Cc1ccc(COC(=O)c2ccc([N+](=O)[O-])s2)cc1 has MIC strictly less than 3 µg/mL
Given back: not satisfied

----------
Listed next: entries and their corresponding clearance.
test: Pharmacokinetics in silkworm hemolymph after intra-hemolymph injection; type: in vivo, Silkworms (Bombyx mori); details: Hu•Yo × Tsukuba•Ne, 50 ug, injected dose 50 μg intra-hemolymph, read-out: Cl (total clearance)
Supply the numeric figure in mL/min, leaving out any unit text.

molecular_string=O=C(OCc1cc(Cl)cc(Cl)c1)c1ccc([N+](=O)[O-])s1 property=clearance measured_result=0.23

Asked: Dear colleague, I am looking for the recorded clearance of the following compound: O=C(OCc1ccccc1)c1ccc([N+](=O)[O-])s1
Given back: 1.1

----------
test: Pharmacokinetics in silkworm hemolymph after intra-hemolymph injection; format: in vivo, Silkworms (Bombyx mori); details: Hu•Yo × Tsukuba•Ne, 50 ug, injected dose 50 μg intra-hemolymph, extrapolated to infinity
Listed next: entries and their corresponding AUC(0-inf).
Supply the numeric figure in ng·h/mL, leaving out any unit text.

compound="O=C(OCc1cc(Cl)cc(Cl)c1)c1ccc([N+](=O)[O-])s1 [compound 5]" measured_result=3480

Asked: Dear colleague, I am looking for the recorded AUC(0-inf) of the following compound: O=C(OCc1ccccc1)c1ccc([N+](=O)[O-])s1 [compound 7]
Given back: 733

----------
experiment: Pharmacokinetics in silkworm hemolymph after intra-hemolymph injection; type: in vivo, Silkworms (Bombyx mori); conditions: Hu•Yo × Tsukuba•Ne, 50 ug, injected dose 50 μg intra-hemolymph, 0 to last measured value (5 h)
Listed next: entries and their corresponding AUC(0-t).
Supply the numeric figure in ng·h/mL, leaving out any unit text.

compound="O=C(OCc1cc(Cl)cc(Cl)c1)c1ccc([N+](=O)[O-])s1 [compound 5]" unit_string=ng·h/mL measured_result=3000

In the following, a different compound is considered.
Asked: Dear colleague, I am looking for the recorded AUC(0-t) of the following compound: O=C(OCc1ccccc1)c1ccc([N+](=O)[O-])s1 [compound 7]
Given back: 733

----------
system: S. aureus MRSA4; experiment: MIC against S. aureus MRSA4 in vitro (broth dilution); type: cell-based; conditions: Staphylococcus aureus; S. aureus MRSA4 in vitro; SAR series (Fig. 2)
property: MIC

molecular_string=O=C(OCc1cc(Cl)cc(Cl)c1)c1cccc([N+](=O)[O-])n1 measured_result="> 400 µg/mL"
molecular_string=O=C(OCc1ccc2ccccc2c1)c1ccc([N+](=O)[O-])o1 measured_result="> 200 µg/mL"
molecular_string=O=C(OCc1cc(Cl)cc(Cl)c1)c1ccc(Cl)s1 measured_result="> 200 µg/mL"

In the following, a different compound is considered.
Asked: Dear colleague, I am looking for the recorded MIC of the following compound: COc1cc(COC(=O)c2ccc([N+](=O)[O-])s2)cc(OC)c1
Given back: > 400 µg/mL

----------
tested on: S. aureus MRSA4; test: MIC against S. aureus MRSA4 in vitro (broth dilution); assay type: cell-based; conditions: Staphylococcus aureus; S. aureus MRSA4 in vitro; SAR series (Fig. 2)
Listed next: entries and their corresponding MIC.

molecule="O=C(OCc1cc(Cl)cc(Cl)c1)c1ccc(Br)s1 [compound 27]" study_system="S. aureus MRSA4" property=MIC measured_result="> 200 µg/mL"
molecule="O=C(OCc1cc(Cl)cc(Cl)c1)c1csc([N+](=O)[O-])c1 [compound 36]" study_system="S. aureus MRSA4" property=MIC measured_result="> 400 µg/mL"

In the following, a different molecule is considered.
Asked: Dear colleague, I am looking for the recorded MIC of the following molecule: CC(=O)c1ccc(C(=O)OCc2cc(Cl)cc(Cl)c2)s1 [compound 34]
Given back: > 400 µg/mL
